System: Fibroblast
Assay overview: Multiplex assay against human fibroblast
Assay type: toxicity, cell-based
Run parameters: 48 h, 10 µM, compound concentration 10 uM, replicate 1
Population Mitotic Cells (%) strictly less than 30% = 1 (yes). Otherwise 0 (no).

Compound	Label class
O=c1ccc2ccc(OCCCCN3CCN(c4cccc5sccc45)CC3)cc2[nH]1	0 (no)
COc1ccc2[nH]c(I)c(CCNC(C)=O)c2c1	0 (no)
COc1cc2nc(N3CCN(C(=O)c4ccco4)CC3)nc(N)c2cc1OC.Cl [PRAZOSIN HYDROCHLORIDE]	0 (no)
CN1CCC(C(=O)c2cccc(NC(=O)c3c(F)cc(F)cc3F)n2)CC1	1 (yes)
N[C@](CC1c2ccccc2Oc2ccccc21)(C(=O)O)[C@H]1C[C@@H]1C(=O)O	0 (no)
Cc1sc2c(c1C)C(c1ccc(Cl)cc1)=N[C@H](CC(=O)OC(C)(C)C)c1nnc(C)n1-2	0 (no)
CN1CCN2c3ccccc3Cc3ccccc3C2C1.Cl (configuration not stated) [MIANSERIN HYDROCHLORIDE]	0 (no)
C=CCN1C[C@H](C(=O)N(CCCN(C)C)C(=O)NCC)C[C@@H]2c3cccc4[nH]cc(c34)C[C@H]21	1 (yes)
COc1c(Nc2ccc(S(C)(=O)=O)nc2C)ncnc1OC1CCN(C(=O)OC(C)C)CC1	1 (yes)
COc1cc(OC2CCN(C(C)=O)CC2)ccc1C(=O)N1CCC(N2C(=O)OCc3ccccc32)CC1	0 (no)
Cl.Cl.OCCOCCN1CCN(C(c2ccccc2)c2ccc(Cl)cc2)CC1 (configuration not stated) [HYDROXYZINE HYDROCHLORIDE]	1 (yes)
CCn1c(-c2nc3cc(C(=O)N4CCCC(N)C4)ccc3n2C)cc2ccccc21.Cl (configuration not stated)	1 (yes)
CCc1nn2c(C)cc(C)nc2c1Cc1ccc(-c2nnc(C3CCNCC3)o2)cc1	1 (yes)
COc1cc(C(=O)N2CC[C@@H](O)[C@@H](N)C2)cc2nc(-c3cc4ccccc4n3CC3CC3)n(C)c12.Cl	1 (yes)
S=C(NCCCc1c[nH]cn1)NCCCN(Cc1ccc(Cl)c(Cl)c1)c1ccc(Br)cn1	0 (no)
Cc1c(Cc2ccc3ccccc3n2)c2cc(F)ccc2n1CC(=O)O	0 (no)
O=C(O)CCC/C=C\CC1C(O)CC(O)C1/C=C/C(O)COc1cccc(Cl)c1 (configuration not stated)	0 (no)

* * *

System: U2OS
Assay overview: Multiplex assay against U2OS
Format: toxicity, cell-based
Run parameters: human, 48 h, 1 µM, compound concentration 1 uM, replicate 1
Quantity name: Population Mitochondria Different-Phenotype (%)

Molecule	Value
CN1C[C@H](C(=O)N[C@]2(C)O[C@@]3(O)[C@@H]4CCCN4C(=O)[C@H](Cc4ccccc4)N3C2=O)C[C@@H]2c3cccc4[nH]cc(c34)C[C@H]21.CS(=O)(=O)O [DIHYDROERGOTAMINE MESYLATE]	2
C[C@@H]1CC(=O)Nc2cccc(-c3ccc4c(c3)c(-c3cnn(C)c3)nn4C)c2N1	2
COCCn1c(C)c(C)s/c1=N\C(=O)C1C(C)(C)C1(C)C	2
Cc1cc(NC(=O)NCCN2CCC(O)(Cc3ccccc3)CC2)c2ccccc2n1	3

* * *

In this section, each of the compounds is paired with its reported Total Cell Count.
Test system: Fibroblast
Assay overview: Multiplex assay against human fibroblast
Assay type: toxicity, cell-based
Run parameters: 24 h, 1 µM, compound concentration 1 uM, replicate 2
Quantity name: Total Cell Count

Compound	Value
COc1c(Nc2ccc(S(C)(=O)=O)nc2C)ncnc1OC1CCN(C(=O)OC(C)C)CC1 [ADP-597]	109
CN1C[C@H](C(=O)N[C@]2(C)O[C@@]3(O)[C@@H]4CCCN4C(=O)[C@H](Cc4ccccc4)N3C2=O)C[C@@H]2c3cccc4[nH]cc(c34)C[C@H]21.CS(=O)(=O)O [DIHYDROERGOTAMINE MESYLATE]	149
Cn1cc(C(=O)OCC2CCN(CCNS(C)(=O)=O)CC2)c2ccccc21	168
CN1CCC(C(=O)c2cccc(NC(=O)c3c(F)cc(F)cc3F)n2)CC1	148

* * *

Tested on: HEK-293T
Assay overview: Multiplex assay against HEK293T
Format: toxicity, cell-based
Run parameters: human, 24 h, 10 µM, compound concentration 10 uM, replicate 1

Molecule	U	Population Mitotic Cells (%)
CC(C)(O)C(=O)N1CCN(c2ccc(C(F)(F)F)c(C3=C(c4c[nH]c5ccccc45)C(=O)NC3=O)c2)CC1	%	54
Cc1nn(C)c2nc(NNC(=O)Nc3cc(Cl)nc(Cl)c3)cc(C(C)C)c12	%	40
CN1CCN2c3ccccc3Cc3ccccc3C2C1.Cl (centres undefined) [MIANSERIN HYDROCHLORIDE]	%	75
N[C@](CC1c2ccccc2Oc2ccccc21)(C(=O)O)[C@H]1C[C@@H]1C(=O)O	%	70
COc1cc(Nc2ncc3c(n2)-c2ccc(Cl)cc2C(c2c(F)cccc2OC)=NC3)ccc1C(=O)O [ALISERTIB]	%	45
CC(F)(F)CN1CCOc2c(nn(-c3ccccc3Cl)c2-c2ccc(Cl)cc2)C1=O	%	42
CN(C)C(=O)Cn1cc(-c2ccc(-c3nnc4ccccn34)cc2)cn1	%	64
COC(c1ccccc1)(c1ccccc1)[C@H](Oc1nc(C)cc(C)n1)C(=O)O [AMBRISENTAN]	%	69
Cc1c(Cc2ccc3ccccc3n2)c2cc(F)ccc2n1CC(=O)O [TIMAPIPRANT]	%	67

* * *

Tested on: U2OS
Assay overview: Multiplex assay against U2OS
Type: toxicity, cell-based
Run parameters: human, 48 h, 10 µM, compound concentration 10 uM, replicate 1

Compound	Population Healthy Nuclei (%)
Nc1nc(-c2ccco2)c2cnn(Cc3ccccc3F)c2n1	51
COc1ccc2[nH]c(I)c(CCNC(C)=O)c2c1	68
COCCn1c(C)c(C)s/c1=N\C(=O)C1C(C)(C)C1(C)C	62
Cc1ccc(OCC(O)C(C)NC(C)C)c2c1CCC2.Cl (stereo unspecified)	63
O=C(Nc1cc(-c2ccccc2)nn1-c1ccccc1F)c1ccc([N+](=O)[O-])cc1	67
Cl.Cl.OCCOCCN1CCN(C(c2ccccc2)c2ccc(Cl)cc2)CC1 (stereo unspecified) [HYDROXYZINE HYDROCHLORIDE]	68

* * *

In this section, each of the compounds is paired with its reported Population Pyknosed Nuclei (%).
Test system: Fibroblast
Assay overview: Multiplex assay against human fibroblast
Type: toxicity, cell-based
Run parameters: 12 h, 10 µM, compound concentration 10 uM, replicate 1

Compound	Target of assay	Population Pyknosed Nuclei (%)
Cc1cc(=O)n(C)c2cc(N3C(=O)CC[C@H](NS(=O)(=O)CC(C)C)[C@H]3c3ccc(Cl)cc3)ccc12	Fibroblast	48
CN1C[C@H](C(=O)N[C@]2(C)O[C@@]3(O)[C@@H]4CCCN4C(=O)[C@H](Cc4ccccc4)N3C2=O)C[C@@H]2c3cccc4[nH]cc(c34)C[C@H]21.CS(=O)(=O)O [DIHYDROERGOTAMINE MESYLATE]	Fibroblast	7
COc1cc(C(=O)N2CC[C@@H](O)[C@@H](N)C2)cc2nc(-c3cc4ccccc4n3CC3CC3)n(C)c12.Cl	Fibroblast	19
CSc1nc(NC2CCCC2)c([N+](=O)[O-])c(NC2CCCC2)n1 [GS-39783]	Fibroblast	21
CN(C)C(=O)Cn1cc(-c2ccc(-c3nnc4ccccn34)cc2)cn1	Fibroblast	28
CN(C)C/C=C/C(=O)Nc1ccc(C(=O)N2CCCC(Nc3ncc(Cl)c(-c4c[nH]c5ccccc45)n3)C2)cc1 (configuration not stated)	Fibroblast	27
O=C(O)CCC/C=C\CC1C(O)CC(O)C1/C=C/C(O)COc1cccc(Cl)c1 (configuration not stated) [CLOPROSTENOL]	Fibroblast	18
S=C(NCCCc1c[nH]cn1)NCCCN(Cc1ccc(Cl)c(Cl)c1)c1ccc(Br)cn1	Fibroblast	16
CC(C)(C)c1ccc(CSc2cnn(C(C)(C)C)c(=O)c2Cl)cc1 [PYRIDABEN]	Fibroblast	20
N[C@](CC1c2ccccc2Oc2ccccc21)(C(=O)O)[C@H]1C[C@@H]1C(=O)O	Fibroblast	20
COc1ccc2c(c1OCc1ccccc1)C[C@@H](C(=O)O)N(C(=O)C(c1ccccc1)c1ccccc1)C2 [OLODANRIGAN]	Fibroblast	23
COc1cc(Nc2ncc3c(n2)-c2ccc(Cl)cc2C(c2c(F)cccc2OC)=NC3)ccc1C(=O)O [ALISERTIB]	Fibroblast	24
COC(c1ccccc1)(c1ccccc1)[C@H](Oc1nc(C)cc(C)n1)C(=O)O [AMBRISENTAN]	Fibroblast	21
CCCCC[C@H](O)/C=C/[C@H]1[C@H](O)CC(=O)[C@@H]1CCCCCCC(=O)O [ALPROSTADIL]	Fibroblast	17
Nc1nc(-c2ccco2)c2cnn(Cc3ccccc3F)c2n1	Fibroblast	21
Cc1sc2c(c1C)C(c1ccc(Cl)cc1)=N[C@H](CC(=O)OC(C)(C)C)c1nnc(C)n1-2	Fibroblast	25
O=C(Nc1cc(-c2ccccc2)nn1-c1ccccc1F)c1ccc([N+](=O)[O-])cc1	Fibroblast	22
